Biological target: CpunOBP2 (Conogethes punctiferalis)
Sequence (A0A0C4K8H3 23-151): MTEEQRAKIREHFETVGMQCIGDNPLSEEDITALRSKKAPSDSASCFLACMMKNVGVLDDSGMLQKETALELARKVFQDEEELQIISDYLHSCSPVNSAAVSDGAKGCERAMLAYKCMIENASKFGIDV
# Lookup of reported pKi keyed by entry
Reminder that pKi means the negative base-10 logarithm of the concentration expressed in mol/L.

• CC/C=C\C/C=C\C/C=C\CCCCCCCCCCCCC [Z3, Z6, Z9-23∶HC, (Z3, Z6, Z9)-tricosatriene] = 5.43
• CCCCC/C=C/CCCCCCCCC=O [E10-16∶Ald, (E)-10-hexadecenal] = 5.07

Turning now to a further molecule:
Can you look up the measured pKi of CCCCC/C=C\CCCCCCCCC=O [Z10-16∶Ald, (Z)-10-hexadecenal] for me?
5.16
